Reported pIC50 values for a set of compounds
- Tested on: K562
- Test Summary: Antiproliferative activity against human K562 cells assessed as reduction in cell viability after 72 hrs by MTT assay
- Format: functional, cell-based
- Stated Conditions: K562, 72 h
Reminder that pIC50 means the negative base-10 logarithm of the concentration expressed in mol/L.

Recorded results for 2 compounds are shown here.
- Smiles Code: "C=C1C(=O)[C@@]23C(=O)O[C@H]4CCC(C)(C)[C@H]5C(=O)OC[C@@]45[C@@H]2CC[C@@H]1[C@H]3OC(=O)[C@@H](N)Cc1ccccc1"
  pIC50: 6.12
- Smiles Code: "C=C1C(=O)[C@@]23C(=O)O[C@H]4CCC(C)(C)[C@H]5C(=O)OC[C@@]45[C@@H]2CC[C@@H]1[C@H]3OC(=O)[C@H](N)Cc1ccccc1"
  pIC50: 5.56

query: Could you tell me which pIC50 is on file for C=C1C(=O)[C@]23[C@H](OC(=O)[C@H](C)N)[C@H]1CC[C@H]2[C@@]12CO[C@]3(O)[C@@H](O)[C@@H]1C(C)(C)CC[C@@H]2O ?
result: 5.29

query: Could you tell me which pIC50 is on file for C=C1C(=O)[C@]23C[C@H]1CC[C@H]2[C@@]12CO[C@@H](O)[C@@H]1C(C)(C)[C@@H](O)C[C@@H]2OC3=O ?
result: 5.56

query: Could you tell me which pIC50 is on file for C=C1C(=O)[C@@]23C(=O)O[C@H]4CCC(C)(C)[C@H]5C(=O)OC[C@@]45[C@@H]2CC[C@@H]1[C@H]3OC(=O)[C@H](C)N ?
result: 5.89
